# Test system: diaphorase
# Method Notes: fluorescently labeled diaphorase binding to peptide array with or without excess FAD
# Test Parameters: 1 micromolar labeled diaphorase, excess FAD present; 65535 is detector saturation
# Description: Measurements were performed in which diaphorase was bound to an array of about 126,000 unique sequences. The sequences were chosen simply to cover sequence space. 16 of the natural 20 amino acids were used to make up these sequences with C, I, M and T omitted. The diaphorase was fluorescently labeled and each peptide sequence feature was scanned and fluorescence recorded on the array. Diaphorase bound tightly to some peptides and not at all to others. […]
Quantity Name: 1 microM FAD (array fluorescence of bound diaphorase)

# example entries with known answers
INSERT INTO results (macromolecule_sequence, test_target, reported_result) VALUES
  ('RQYQKHSYAKFSGSG [array peptide with C-terminal GSG linker]', 'diaphorase', 2460),
  ('RSHPKHNVGSG [array peptide with C-terminal GSG linker]', 'diaphorase', 3876),
  ('RAQYAQYLFGGSG [array peptide with C-terminal GSG linker]', 'diaphorase', 3162);

a. YRFQSGLPAKDGSG [array peptide with C-terminal GSG linker]
b. ELFGALFKGGSG [array peptide with C-terminal GSG linker]
Query block: Which value of 1 microM FAD (array fluorescence of bound diaphorase) is smaller, the one for a or the one for b ? Answer with the label corresponding to your selection.
Result block: a
